Molecular target: HeLa cell extract proteins (Homo sapiens)
Construct: endogenous in cells; host or cells: HeLa cell extract
Sequence (O43809 whole entry): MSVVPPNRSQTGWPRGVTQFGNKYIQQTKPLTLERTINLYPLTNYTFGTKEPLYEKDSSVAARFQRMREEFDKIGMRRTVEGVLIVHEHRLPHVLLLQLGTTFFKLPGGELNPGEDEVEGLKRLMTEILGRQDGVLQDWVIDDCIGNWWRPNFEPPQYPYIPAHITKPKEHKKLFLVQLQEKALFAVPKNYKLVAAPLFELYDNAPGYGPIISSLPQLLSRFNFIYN
Type: binding
Conditions: protein NUDT21; HeLa
Form field: fold changes relative to vehicle control (one value per entry).
Enter a number only.

Take a look at these entries with their results.
>  <compound>
NCCOCCOCC(=O)Nc1nc2ncc(CNc3ccc(C(=O)NC(CCC(=O)O)C(=O)O)cc3)nc2c(=O)[nH]1 (stereo not drawn) [compound 6]

>  <measurement>
1

$$$$
>  <compound>
CCCCCCOc1cccc(Cc2cnc(N)nc2N)c1 [compound 2]

>  <measurement>
1.28

$$$$
>  <compound>
Nc1nc2c(c(=O)[nH]1)N(C=O)C(CNc1ccc(C(=O)N[C@@H](CCC(=O)O)C(=O)O)cc1)CN2 (stereo partly drawn) [LEU, leucovorin]

>  <measurement>
1.11

$$$$
>  <compound>
Nc1nc2cccc(-c3ccccc3)c2n1Cc1ccc(Cl)c(Cl)c1 [compound 3]

>  <measurement>
0.99

$$$$
>  <compound>
CCCCCCOc1ccc(Cc2cnc(N)nc2N)cc1 [compound 1]

>  <measurement>
1.16

$$$$

Q. fold changes relative to vehicle control lookup needed for NCCCNc1ccc(C(=O)NC(CCC(=O)O)C(=O)O)cc1 (stereo not drawn) [compound 7] , thanks.
A. 0.98
